B1: LINE1-full (parent)
chain: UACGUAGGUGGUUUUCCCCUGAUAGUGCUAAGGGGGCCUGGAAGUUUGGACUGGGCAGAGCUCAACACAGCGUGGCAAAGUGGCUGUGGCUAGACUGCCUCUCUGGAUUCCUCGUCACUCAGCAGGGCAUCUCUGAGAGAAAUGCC

variants of: B1; assay: self-cleavage, relative activity (ratio to wild type); higher = more cleavage; in vitro, sequencing; the parent is a self-cleaving ribozyme
Provide the recorded self-cleavage for the entries that follow.
Returns: the value as a bare number; no unit string appended.

Measured self-cleavage of UACGUAGGUGGUUUUCCCCUGAUAGUGCUAAGGGGGCCUGGAAGUUUGGACUGGGCAGAGCUCAACGCAGCGUGGCAAAGUGGCUGUGGCUAGACUGCCUCUCUGGAUUCCUCGACACUCAGCAGGGCAUCUCUGAGAGAAAUGCC [A67G U115A] : 0.61

variant UACGUAGGUGGGUUUCCCCUGAUAGUGCUAAGGGGGCCUGGAAGUUUGGACUGGGCAGAGCUCAACACAGCGUGGCAAAGUGGCUGUGGCUAGACUGCCUCUCUGGGUUCCUCGUCACUCAGCAGGGCAUCUCUGAGAGAAAUGCC [U12G A107G] , self-cleavage observed: 1.58

Notebook: UACGUAGGUAGUUUUCCCCUGAUAGUGCUAAGGGGGCCUGGAAGUUUGGACUGGGCAGAGCUCAACACAGCGUGGCAAAGUGGCUGUGGCUAGACUGCCUCUCUGGAUUCCUCGUCACUCAGCAGGGCAGCUCUGAGAGAAAUGCC [G10A U130G] , self-cleavage read as 0.93

Entry under test: UACGUAGGUGGUUUUCCCCUGAUAGUGCUAAGGGGGCCUGGAAGUUUGGACUGGGCAGAGCUCAAUACAGCGUGACAAAGUGGCUGUGGCUAGACUGCCUCUCUGGAUUCCUCGUCACUCAGCAGGGCAUCUCUGAGAGAAAUGCC [C66U G75A] . Its self-cleavage was 0.04
